Below, each of the molecules is paired with its reported log10 of EC50 value.
Target: hα7-wt nAChR-expressing GH4Cl cells (Homo sapiens)
Construct: expressed in transfected cells
Sequence (P36544 23-502): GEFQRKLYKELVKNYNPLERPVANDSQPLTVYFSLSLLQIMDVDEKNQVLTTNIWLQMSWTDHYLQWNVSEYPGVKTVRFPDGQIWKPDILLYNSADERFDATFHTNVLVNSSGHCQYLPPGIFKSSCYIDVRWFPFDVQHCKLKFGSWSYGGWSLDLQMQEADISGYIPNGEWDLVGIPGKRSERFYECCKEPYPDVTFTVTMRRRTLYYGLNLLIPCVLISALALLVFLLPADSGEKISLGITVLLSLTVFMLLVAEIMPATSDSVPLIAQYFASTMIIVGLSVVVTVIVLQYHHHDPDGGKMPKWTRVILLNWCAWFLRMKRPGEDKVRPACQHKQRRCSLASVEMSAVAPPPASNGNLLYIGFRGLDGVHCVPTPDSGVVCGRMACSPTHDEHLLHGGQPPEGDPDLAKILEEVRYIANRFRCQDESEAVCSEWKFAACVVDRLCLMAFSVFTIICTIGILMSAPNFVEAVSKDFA
Experiment: Patch-clamp current recording (whole-cell), potentiation of choline 1 mM response, PAM type
Type: cell-based
Conditions: according to Ex. D.2; "<5" = no top plateau reached at maximal concentration; read-out: Potency (pEC50) (converted)
Method: The compounds of the present invention are classified as type 1-4, based on qualitative kinetic properties, as determined by whole-cell voltage-clamp recordings. This classification is based on the effect of an α7 PAM compound, as described hereinbefore, on the signal elicited by an agonist application. In particular, said agonist is choline at a concentration of 1 mM. […]
Heads up: the numbers are on a log10 scale; they represent EC50 in nM.

A selection of reference data follows.
MOLECULE | log10 of EC50
Cc1cc(-n2nc(Nc3cccc(Cl)c3F)nc2CC(=O)NC2CC2)c(C)cn1 | 3.58
Cc1cc(-n2nc(Nc3cccc(Cl)c3F)nc2CC(=O)NCC2CC2)c(C)cn1 | 3.14
CC[C@H](O)Cc1nc(Nc2cccc(Cl)c2F)nn1-c1ccnc(C)c1 | 2.61

The molecule `Cc1cc(-n2nc(Nc3ccc(F)c(F)c3)nc2CC(=O)NC2CCC2)c(C)cn1` , tested on hα7-wt nAChR-expressing GH4Cl cells (Homo sapiens), showed log10 of EC50 of 3.46

The molecule `Cc1cc(-n2nc(Nc3cccc(OC(F)(F)F)c3)nc2CC(=O)NCC2CC2)cc(C)n1` , tested on hα7-wt nAChR-expressing GH4Cl cells (Homo sapiens), showed log10 of EC50 of 2.32

The molecule `CCNC(=O)Cc1nc(Nc2cccc(C(F)(F)F)c2)nn1-c1cc(C)nc(C)c1` , tested on hα7-wt nAChR-expressing GH4Cl cells (Homo sapiens), showed log10 of EC50 of 2.74

The molecule O=C(CCc1nc(Nc2cccc(OC(F)(F)F)c2)nn1-c1cccnc1)N1CCC(O)C1 (stereo not drawn) , tested on hα7-wt nAChR-expressing GH4Cl cells (Homo sapiens), showed log10 of EC50 of 3.10

The molecule `CCNc1cc(-n2nc(Nc3ccc(F)c(F)c3)nc2C[C@@H](O)CC)ccn1` , tested on hα7-wt nAChR-expressing GH4Cl cells (Homo sapiens), showed log10 of EC50 of 2.19
